Measured koff values are reported for all entries that follow.
Target Or System: canine FcRn (FcRn large subunit with canine beta-2-microglobulin) (canine)
Assay Procedure: SPR pH 5.5, SASA-Fc captured on BSA, FcRn 400 nM
API: value field is a number in s⁻¹; no unit string.

Past entries and their recorded results:
{"columns": ["Binder", "koff / s⁻¹"],
 "data": [
  ["canine IgGB Fc (CH2-CH3) Q285A with N-terminal SASA tag (Fc fusion, part only; not given: SASA tag, not shown: another chain or arm of the molecule; small tags and cut ends) Fc: APEMLGGPSVFIFPPKPKDTLLIARTPEVTCVVVDLDPEDPEVQISWFVDGKQMATAKTQPREEQFNGTYRVVSVLPIGHQDWLKGKQFTCKVNNKALPSPIERTISKARGQAHQPSVYVLPPSREELSKNTVSLTCLIKDFFPPDIDVEWQSNGQQEPESKYRTTPPQLDEDGSYFLYSKLSVDKSRWQRGDTFICAVMHEALHNHYTQESLSHSPGK", 0.112],
  ["canine IgGB Fc (CH2-CH3) P307A with N-terminal SASA tag (Fc fusion, part only; not given: SASA tag, not shown: another chain or arm of the molecule; small tags and cut ends) Fc: APEMLGGPSVFIFPPKPKDTLLIARTPEVTCVVVDLDPEDPEVQISWFVDGKQMQTAKTQPREEQFNGTYRVVSVLAIGHQDWLKGKQFTCKVNNKALPSPIERTISKARGQAHQPSVYVLPPSREELSKNTVSLTCLIKDFFPPDIDVEWQSNGQQEPESKYRTTPPQLDEDGSYFLYSKLSVDKSRWQRGDTFICAVMHEALHNHYTQESLSHSPGK", 1.23],
  ["canine IgGB Fc (CH2-CH3) K315A with N-terminal SASA tag (Fc fusion, part only; not given: SASA tag, not shown: another chain or arm of the molecule; small tags and cut ends) Fc: APEMLGGPSVFIFPPKPKDTLLIARTPEVTCVVVDLDPEDPEVQISWFVDGKQMQTAKTQPREEQFNGTYRVVSVLPIGHQDWLAGKQFTCKVNNKALPSPIERTISKARGQAHQPSVYVLPPSREELSKNTVSLTCLIKDFFPPDIDVEWQSNGQQEPESKYRTTPPQLDEDGSYFLYSKLSVDKSRWQRGDTFICAVMHEALHNHYTQESLSHSPGK", 0.134]
]}

// query Sample canine IgGB Fc (CH2-CH3) T256A with N-terminal SASA tag (Fc fusion, part only; not given: SASA tag, not shown: another chain or arm of the molecule; small tags and cut ends) Fc: APEMLGGPSVFIFPPKPKDTLLIARAPEVTCVVVDLDPEDPEVQISWFVDGKQMQTAKTQPREEQFNGTYRVVSVLPIGHQDWLKGKQFTCKVNNKALPSPIERTISKARGQAHQPSVYVLPPSREELSKNTVSLTCLIKDFFPPDIDVEWQSNGQQEPESKYRTTPPQLDEDGSYFLYSKLSVDKSRWQRGDTFICAVMHEALHNHYTQESLSHSPGK — what was its koff?
// result 0.166
